- protocol-text: Pharmacokinetics in naïve female mice
- stated-conditions: mouse, in vivo, iv, 1 mg/kg i.v., NMP-PEG300 10/90
readout-kind: AUC(0-t) (µM·h)
Supply the numeric figure in µM·h, leaving out any unit text.

Ask | Value lookup for AUC(0-t); key = N#Cc1ccc(C(F)(c2ccc(C#N)cc2)n2cncn2)cc1
Reply | 21

====

- protocol-text: Pharmacokinetics in rats
- Format: in vivo
- stated-conditions: rat, in vivo, iv, 1 mg/kg, 1 mg/kg i.v., PEG200-0.9% Saline-solution 40/60
readout-kind: AUC(0-inf)
Please answer using the number first and the unit second.

Ask | Value lookup for AUC(0-inf); key = N#Cc1ccc(C(F)(c2ccc(C#N)cc2)n2cncn2)cc1
Reply | 123 µM·h

====

- protocol-text: Thermodynamic solubility
- Type: physicochemical
- stated-conditions: SGF, simulated gastric fluid, thermodynamic from solid
readout-kind: solubility thermodynamic

Ask | Value lookup for solubility thermodynamic; key = N#Cc1ccc(C(F)(c2ccc(C#N)cc2)n2cncn2)cc1 [Form A leflutrozole]
Reply | < 30 µg/mL

====

- protocol-text: Thermodynamic solubility
- Format: physicochemical
- stated-conditions: 1% Cremophor EL in water, aqueous with cosolvent or surfactant or cyclodextrin, thermodynamic from solid
readout-kind: solubility thermodynamic

Ask | Value lookup for solubility thermodynamic; key = N#Cc1ccc(C(F)(c2ccc(C#N)cc2)n2cncn2)cc1 [Form A leflutrozole]
Reply | < 0.03 mg/mL

====

- protocol-text: Thermodynamic solubility
- Type: physicochemical
- stated-conditions: FeSSIF, thermodynamic from solid
readout-kind: solubility thermodynamic

Ask | Value lookup for solubility thermodynamic; key = N#Cc1ccc(C(F)(c2ccc(C#N)cc2)n2cncn2)cc1 [Form A leflutrozole]
Reply | < 30 µg/mL

====

- protocol-text: Thermodynamic solubility
- Format: physicochemical
- stated-conditions: aqueous buffer, thermodynamic from solid; 0.05M buffer pH 7.4 - Potassium Phosphate
readout-kind: solubility thermodynamic

Ask | Value lookup for solubility thermodynamic; key = N#Cc1ccc(C(F)(c2ccc(C#N)cc2)n2cncn2)cc1 [Form A leflutrozole]
Reply | < 30 µg/mL

====

- protocol-text: Pharmacokinetics in rats
- Assay type: in vivo
- stated-conditions: rat, in vivo, po, 1 mg/kg, 1 mg/kg p.o., Suspension 0.5% HPC
readout-kind: AUC(0-inf)
Please answer using the number first and the unit second.

Ask | Value lookup for AUC(0-inf); key = N#Cc1ccc(C(F)(c2ccc(C#N)cc2)n2cncn2)cc1
Reply | 245 µM·h

====

- study-target: CYP2C9 (Homo sapiens, UniProt P11712)
- Sequence (P11712 whole entry): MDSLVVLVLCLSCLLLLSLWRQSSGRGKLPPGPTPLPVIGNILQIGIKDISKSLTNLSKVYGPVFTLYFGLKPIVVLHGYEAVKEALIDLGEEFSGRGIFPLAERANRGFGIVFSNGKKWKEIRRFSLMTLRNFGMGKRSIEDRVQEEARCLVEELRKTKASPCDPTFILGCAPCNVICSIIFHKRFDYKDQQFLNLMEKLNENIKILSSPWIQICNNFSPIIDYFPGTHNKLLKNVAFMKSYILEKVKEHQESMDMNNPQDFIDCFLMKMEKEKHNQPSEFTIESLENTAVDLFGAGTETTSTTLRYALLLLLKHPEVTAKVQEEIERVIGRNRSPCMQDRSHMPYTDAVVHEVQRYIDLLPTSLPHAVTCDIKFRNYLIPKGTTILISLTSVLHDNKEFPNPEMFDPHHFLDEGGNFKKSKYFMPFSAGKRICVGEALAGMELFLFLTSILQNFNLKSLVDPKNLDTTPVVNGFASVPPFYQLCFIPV
pIC50: −log10 of the molar value.
readout-kind: pIC50

Ask | I'm curious: which pIC50 was measured for N#Cc1ccc(C(F)(c2ccc(C#N)cc2)n2cncn2)cc1 [leflutrozole] tested on CYP2C9 (Homo sapiens, UniProt P11712)?
Reply | < 4.30

====

- protocol-text: Pharmacokinetics in naïve female mice
- stated-conditions: mouse, in vivo, iv, 1 mg/kg i.v., NMP-PEG300 10/90
readout-kind: clearance (mL/min)
Supply the numeric figure in mL/min, leaving out any unit text.

Ask | Value lookup for clearance; key = N#Cc1ccc(C(F)(c2ccc(C#N)cc2)n2cncn2)cc1 [leflutrozole]
Reply | 1.5

====

- protocol-text: Thermodynamic solubility
- Type: physicochemical
- stated-conditions: Cremophor EL, organic solvent or mixture, thermodynamic from solid
readout-kind: solubility thermodynamic
Please answer using the number first and the unit second.

Ask | Value lookup for solubility thermodynamic; key = N#Cc1ccc(C(F)(c2ccc(C#N)cc2)n2cncn2)cc1 [Form A leflutrozole]
Reply | 280 µg/mL

====

- protocol-text: Pharmacokinetics in rats
- Assay type: in vivo
- stated-conditions: rat, in vivo, iv, 1 mg/kg, 1 mg/kg i.v., PEG200-0.9% Saline-solution 40/60, read-out: T1/2 (converted)
readout-kind: half-life (h)
Supply the numeric figure in h, leaving out any unit text.

Ask | Value lookup for half-life; key = N#Cc1ccc(C(F)(c2ccc(C#N)cc2)n2cncn2)cc1
Reply | 33.1

====

- protocol-text: Thermodynamic solubility
- Format: physicochemical
- stated-conditions: 0.05 M potassium chloride buffer, aqueous buffer, thermodynamic from solid; 0.05M buffer pH 1 - Potassium Chloride
readout-kind: solubility thermodynamic

Ask | Value lookup for solubility thermodynamic; key = N#Cc1ccc(C(F)(c2ccc(C#N)cc2)n2cncn2)cc1 [Form A leflutrozole]
Reply | < 30 µg/mL

====

- protocol-text: Pharmacokinetics in rats
- Type: in vivo
- stated-conditions: rat, in vivo, iv, 1 mg/kg i.v., PEG200-0.9% Saline-solution 40/60
readout-kind: clearance (mL/min)
Supply the numeric figure in mL/min, leaving out any unit text.

Ask | Value lookup for clearance; key = N#Cc1ccc(C(F)(c2ccc(C#N)cc2)n2cncn2)cc1
Reply | 0.383

====

- protocol-text: Pharmacokinetics in rats
- Format: in vivo
- stated-conditions: rat, in vivo, po, 1 mg/kg, AUC 0-24^1/48^2 h, 1 mg/kg p.o., PEG200-water-solution 40/60
readout-kind: AUC(0-t) (µM·h)
Supply the numeric figure in µM·h, leaving out any unit text.

Ask | Value lookup for AUC(0-t); key = N#Cc1ccc(C(F)(c2ccc(C#N)cc2)n2cncn2)cc1
Reply | 70.2

====

- protocol-text: Pharmacokinetics in rats
- Type: in vivo
- stated-conditions: rat, in vivo, iv, 1 mg/kg, AUC 0-24^1/48^2 h, 1 mg/kg i.v., PEG200-0.9% Saline-solution 40/60
readout-kind: AUC(0-t)
Please answer using the number first and the unit second.

Ask | Value lookup for AUC(0-t); key = N#Cc1ccc(C(F)(c2ccc(C#N)cc2)n2cncn2)cc1
Reply | 79.4 µM·h

====

- protocol-text: Thermodynamic solubility
- Format: physicochemical
- stated-conditions: 10% PG in water, aqueous with cosolvent or surfactant or cyclodextrin, thermodynamic from solid
readout-kind: solubility thermodynamic

Ask | Value lookup for solubility thermodynamic; key = N#Cc1ccc(C(F)(c2ccc(C#N)cc2)n2cncn2)cc1 [Form A leflutrozole]
Reply | < 30 µg/mL

====

- study-target: CYP2E1 (Homo sapiens)
- Sequence (P05181 whole entry): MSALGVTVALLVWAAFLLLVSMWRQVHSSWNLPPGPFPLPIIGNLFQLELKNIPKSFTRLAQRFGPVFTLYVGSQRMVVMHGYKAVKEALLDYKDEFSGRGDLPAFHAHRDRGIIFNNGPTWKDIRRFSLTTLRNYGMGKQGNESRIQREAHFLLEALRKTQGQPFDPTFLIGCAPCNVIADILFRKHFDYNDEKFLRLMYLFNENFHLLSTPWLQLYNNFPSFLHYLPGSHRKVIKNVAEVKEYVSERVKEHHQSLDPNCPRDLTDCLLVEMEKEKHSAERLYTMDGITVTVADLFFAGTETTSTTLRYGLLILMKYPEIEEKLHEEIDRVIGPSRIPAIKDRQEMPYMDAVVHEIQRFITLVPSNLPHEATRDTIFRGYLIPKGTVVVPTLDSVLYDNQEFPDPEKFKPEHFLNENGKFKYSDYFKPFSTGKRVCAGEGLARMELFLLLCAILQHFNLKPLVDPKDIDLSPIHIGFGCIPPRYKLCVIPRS
readout-kind: IC50

Ask | Value lookup for IC50; key = N#Cc1ccc(C(F)(c2ccc(C#N)cc2)n2cncn2)cc1
Reply | > 50 µM

====

- protocol-text: Cellular transport by Caco-2 assay
- Format: in vitro ADME, humans
- stated-conditions: human, read-out: apparent permeability, apical to basolateral
- Source text: The ratio of B-A/A-B is 0.43.
readout-kind: Papp A→B (×10⁻⁶ cm/s)
Supply the numeric figure in ×10⁻⁶ cm/s, leaving out any unit text.

Ask | Value lookup for Papp A→B; key = N#Cc1ccc(C(F)(c2ccc(C#N)cc2)n2cncn2)cc1
Reply | 54.5

====

- protocol-text: Pharmacokinetics in rats
- Assay type: in vivo
- stated-conditions: rat, in vivo, po, 1 mg/kg, read-out: half-life (converted)
readout-kind: half-life (h)
Supply the numeric figure in h, leaving out any unit text.

Ask | Value lookup for half-life; key = N#Cc1ccc(C(F)(c2ccc(C#N)cc2)n2cncn2)cc1
Reply | 101

====

- protocol-text: Metabolic stability in rat liver microsomes
- Type: in vitro ADME
readout-kind: half-life

Ask | Value lookup for half-life; key = N#Cc1ccc(C(F)(c2ccc(C#N)cc2)n2cncn2)cc1 [leflutrozole]
Reply | > 5 h

====

- protocol-text: Pharmacokinetics in naïve female mice
- stated-conditions: mouse, in vivo, po, 2.5 mg/kg p.o., NMP-PEG300 10/90
readout-kind: AUC(0-inf) (µM·h)
Supply the numeric figure in µM·h, leaving out any unit text.

Ask | Value lookup for AUC(0-inf); key = N#Cc1ccc(C(F)(c2ccc(C#N)cc2)n2cncn2)cc1
Reply | 70.2

====

- protocol-text: Thermodynamic solubility
- Format: physicochemical
- stated-conditions: 1% Tween 80 in water, aqueous with cosolvent or surfactant or cyclodextrin, thermodynamic from solid
readout-kind: solubility thermodynamic

Ask | Value lookup for solubility thermodynamic; key = N#Cc1ccc(C(F)(c2ccc(C#N)cc2)n2cncn2)cc1 [Form A leflutrozole]
Reply | < 30 µg/mL

====

- protocol-text: Thermodynamic solubility
- Assay type: physicochemical
- stated-conditions: 20% sulfobutyl ether β-cyclodextrin (Captisol) in water, aqueous with cosolvent or surfactant or cyclodextrin, thermodynamic from solid
readout-kind: solubility thermodynamic
Please answer using the number first and the unit second.

Ask | Value lookup for solubility thermodynamic; key = N#Cc1ccc(C(F)(c2ccc(C#N)cc2)n2cncn2)cc1 [Form A leflutrozole]
Reply | 1050 µg/mL

====

- study-target: CYP2A6 (Homo sapiens)
- Construct: assessed by pooled human liver microsomes using enzyme selective probe substrates; from tissue; host or cells: pooled human liver microsomes
- Sequence (P11509 whole entry): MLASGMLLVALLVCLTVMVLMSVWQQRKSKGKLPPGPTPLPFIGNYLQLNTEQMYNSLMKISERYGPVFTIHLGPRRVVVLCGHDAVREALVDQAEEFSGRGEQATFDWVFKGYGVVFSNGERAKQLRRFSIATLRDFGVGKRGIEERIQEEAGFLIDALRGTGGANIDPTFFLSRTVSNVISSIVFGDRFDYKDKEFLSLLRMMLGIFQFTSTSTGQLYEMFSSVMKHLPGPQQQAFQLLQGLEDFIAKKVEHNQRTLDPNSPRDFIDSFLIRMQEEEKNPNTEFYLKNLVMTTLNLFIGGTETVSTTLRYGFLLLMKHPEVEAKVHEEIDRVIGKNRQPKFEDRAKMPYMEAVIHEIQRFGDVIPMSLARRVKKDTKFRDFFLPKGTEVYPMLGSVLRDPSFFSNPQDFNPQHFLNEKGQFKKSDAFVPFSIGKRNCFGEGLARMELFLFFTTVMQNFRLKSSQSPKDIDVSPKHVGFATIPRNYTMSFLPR
- protocol-text: CYP inhibition, pooled human liver microsomes, probe substrates
- Assay type: in vitro ADME
readout-kind: Ki (nM)
Supply the numeric figure in nM, leaving out any unit text.

Ask | I'm curious: which Ki was measured for N#Cc1ccc(C(F)(c2ccc(C#N)cc2)n2cncn2)cc1 tested on CYP2A6 (Homo sapiens)?
Reply | 2560

====

- protocol-text: Thermodynamic solubility
- Assay type: physicochemical
- stated-conditions: 0.05 M potassium phosphate buffer, aqueous buffer, thermodynamic from solid; 0.05M buffer pH 6.86 - Potassium Phosphate
readout-kind: solubility thermodynamic

Ask | Value lookup for solubility thermodynamic; key = N#Cc1ccc(C(F)(c2ccc(C#N)cc2)n2cncn2)cc1 [Form A leflutrozole]
Reply | < 30 µg/mL
